# target-under-test: CYP3A4 (Homo sapiens (Human), UniProt P08684)
# Sequence (P08684 whole entry): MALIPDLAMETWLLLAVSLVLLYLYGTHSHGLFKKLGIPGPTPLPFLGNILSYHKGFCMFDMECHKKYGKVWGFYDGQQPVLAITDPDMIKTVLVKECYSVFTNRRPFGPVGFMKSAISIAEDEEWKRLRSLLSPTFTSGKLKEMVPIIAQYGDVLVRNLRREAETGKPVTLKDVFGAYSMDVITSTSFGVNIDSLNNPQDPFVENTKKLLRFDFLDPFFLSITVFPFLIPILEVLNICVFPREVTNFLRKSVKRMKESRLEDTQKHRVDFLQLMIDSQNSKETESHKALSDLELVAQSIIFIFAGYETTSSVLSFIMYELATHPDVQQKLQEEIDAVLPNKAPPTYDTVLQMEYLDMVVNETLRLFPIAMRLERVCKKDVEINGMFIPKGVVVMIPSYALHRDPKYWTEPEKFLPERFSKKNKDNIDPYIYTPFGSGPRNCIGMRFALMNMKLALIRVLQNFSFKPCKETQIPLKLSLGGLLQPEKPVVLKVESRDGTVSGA
# protocol-details: CYP3A4 inhibition assay in pooled human liver microsomes
# Format: in vitro ADME
# assay-context: NADPH, 37° C., read-out: CYP 3A4 Inhibition IC50

{"columns": ["compound", "IC50 (nM)"],
 "data": [
  ["COC1=C(C(=O)c2ncc(C)cc2NS(=O)(=O)c2ccc(Cl)c(C(F)(F)F)c2)C2C=CNC2N=C1 (stereo not drawn)", 3000],
  ["Cc1cnc(C(=O)c2ccnc3[nH]ncc23)c(NS(=O)(=O)c2ccc(Cl)c(C(F)(F)F)c2)c1", 3000],
  ["Cc1cnc(C(=O)c2ncnc3[nH]ccc23)c(NS(=O)(=O)c2ccc(Cl)c(C(F)(F)F)c2)c1 [drawing 76]", 20000]
]}

---

# protocol-details: Intravenous/oral pharmacokinetic study in Sprague-Dawley rats
# Assay type: in vivo
# assay-context: rat, plasma; male Sprague-Dawley rats; read-out: Rat PK MRT (converted)
Measured MRT by item

{"columns": ["compound", "MRT"],
 "data": [
  ["O=C(C1=CC=NC2NC=CC12)c1ncc(Cl)cc1NS(=O)(=O)c1ccc(Cl)c(C(F)(F)F)c1 (centres unmarked)", "21 min"],
  ["COC1=C(C(=O)c2ncc(C)cc2NS(=O)(=O)c2ccc(Cl)c(C(F)(F)F)c2)C2C=CNC2N=C1 (centres unmarked)", "22 min"],
  ["Cc1cnc(C(=O)c2ccnc3[nH]ncc23)c(NS(=O)(=O)c2ccc(Cl)c(C(F)(F)F)c2)c1", "35 min"],
  ["O=C(c1ncc(Cl)cc1NS(=O)(=O)c1ccc(Cl)c(C(F)(F)F)c1)c1ncnc2[nH]ccc12", "68 min"],
  ["Cc1cnc(C(=O)c2ncnc3[nH]ccc23)c(NS(=O)(=O)c2ccc(Cl)c(C(F)(F)F)c2)c1 [drawing 76]", "135 min"]
]}

---

# protocol-details: in vivo
# assay-context: male, beagle, dog, plasma, oral, 5 mg/kg

{"columns": ["molecule", "bioavailability"],
 "data": [
  ["Cc1cnc(C(=O)c2ncnc3[nH]ccc23)c(NS(=O)(=O)c2ccc(Cl)c(C(F)(F)F)c2)c1 [Compound 5]", "~100%"]
]}

---

# target-under-test: CCR2 (Homo sapiens (Human), UniProt P41597)
# Sequence (P41597 other isoform, or with tags, fused parts or gaps isoform P41597-2): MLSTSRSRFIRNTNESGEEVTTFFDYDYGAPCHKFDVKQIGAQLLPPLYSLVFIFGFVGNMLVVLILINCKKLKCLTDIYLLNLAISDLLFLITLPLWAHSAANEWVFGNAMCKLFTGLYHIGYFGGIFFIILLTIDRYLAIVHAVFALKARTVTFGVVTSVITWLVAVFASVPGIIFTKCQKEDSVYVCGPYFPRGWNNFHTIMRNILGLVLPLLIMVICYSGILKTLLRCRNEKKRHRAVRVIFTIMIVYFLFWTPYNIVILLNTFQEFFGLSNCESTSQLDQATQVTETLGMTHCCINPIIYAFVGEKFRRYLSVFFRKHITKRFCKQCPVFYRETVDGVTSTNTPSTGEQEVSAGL
# protocol-details: CCR2 chemotaxis assay (conventional migration assay, THP-1 cells, MCP-1)
# Assay type: cell-based
observation-type: IC50

{"columns": ["compound", "observation-type", "test-value"],
 "data": [
  ["Cc1cnc(C(=O)c2ncnc3[nH]ccc23)c(NS(=O)(=O)c2ccc(Cl)c(C(F)(F)F)c2)c1", "IC50", "~5 nM"]
]}

---

# protocol-details: Intravenous/oral pharmacokinetic study in Sprague-Dawley rats
# Type: in vivo
# assay-context: rat, plasma; male Sprague-Dawley rats; read-out: Rat PK T1/2
Measured half-life by item

{"columns": ["compound", "half-life"],
 "data": [
  ["O=C(C1=CC=NC2NC=CC12)c1ncc(Cl)cc1NS(=O)(=O)c1ccc(Cl)c(C(F)(F)F)c1 (stereo not shown)", "0.7 h"],
  ["Cc1cnc(C(=O)c2ncnc3[nH]ccc23)c(NS(=O)(=O)c2ccc(Cl)c(C(F)(F)F)c2)c1 [drawing 78]", "2.68 h"],
  ["COC1=C(C(=O)c2ncc(C)cc2NS(=O)(=O)c2ccc(Cl)c(C(F)(F)F)c2)C2C=CNC2N=C1 (stereo not shown)", "0.317 h"],
  ["O=C(c1ncc(Cl)cc1NS(=O)(=O)c1ccc(Cl)c(C(F)(F)F)c1)c1ncnc2[nH]ccc12", "2.12 h"]
]}
